Assay: Physicochemical properties of model APIs and permeation agents (solubility, log P, pKa, HLB)
measurement-name: pKa

>>> df
                               compound  measurement_name  recorded_result
0  NCCCC[C@H](N)C(=O)O [lysine, Lysine]               pKa              ≥ 5
